Target: Pfs25, monomeric, produced in Nicotiana benthamiana (Plasmodium falciparum (NF54; identical …, UniProt P13829)
Sequence (P13829 22-193): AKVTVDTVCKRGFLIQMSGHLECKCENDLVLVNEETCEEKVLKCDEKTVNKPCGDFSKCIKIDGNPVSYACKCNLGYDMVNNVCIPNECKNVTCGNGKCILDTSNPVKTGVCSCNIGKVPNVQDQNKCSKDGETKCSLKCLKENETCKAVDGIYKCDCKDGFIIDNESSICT
Assay: BLI
Conditions: both partners purified
readoutName: Kd (nM)
Numbers only, in nM.

binder	measuredResult
1202 Fab (Fab, V domains shown, source: HEK293F, transiently expressed, purified (LambdaSelect or KappaSelect, MonoS, Superdex 200)) VH: QVQLVESGGDLVKPGGSLRLSCAASGFTFSDHYMNWIRQAPGKGLEWVSYISSSGSTIYYSDSVKGRFTISRDNAKYLLSLQMNSLRAEDTAVYFCARDPMVRGFHDAFDIWGQGTMVTVSS VL: SYELTQPPSVSVSPGQTASITCSGDKLGDKYASWYQQKPGQSPVLVIFQDNKRPSGIPERFSGSNSGNTATLTISETQAMDEADYYCQAWDISTAVFGTGTNVT	35

Batch lookup, Kd per entry.
1. 1266 Fab (Fab, V domains shown, source: HEK293F, transiently expressed, purified (LambdaSelect or KappaSelect, MonoS, Superdex 200)) VH: QVQLQQSGPGLVKPSQTLSLTCAISGDSVSSNSAAWNWIRQSPSRGLEWLGRTYYRSKWYNDYAVSVKSRITINADTSKNQFSLQLNSVTPEDTAVYYCVRDLLGSSGWYVFFDNWGQGTLVTVSS VL: SYELTQPPSVSVSPGQSARITCSGDALPMKYAYWYQQKSGQAPVLVIYEDSKRPSGIPERFSGSSSGTMATLTISGAQVEDEADYYCFSTDSSGNHRVFGGGTKLT
2. 1268 Fab (Fab, V domains shown, source: HEK293F, transiently expressed, purified (KappaSelect or LambdaSelect, MonoS, Superdex 200)) VH: EVQLVESGGGLVKPGGSLRLSCAASGFTFSRYSMNWVRQAPGKGLEWVSSISSRSSYKYYVDSVKGRFTISRDNAKNSLYLQMNSLRAEDTAVYYCARDDYGSGSYYYNWLDPWGQGTLVTVSS VL: DIQLTQSPSFLSASVGDRVTITCWASQGISSFLAWYQQKPGKAPKLLIYAASTLESGVPSRFSGSGSGTEFTLTISSLQPEDFATYYCQQLNSYPRTFGQGTKVEIK
3. 1262 Fab (Fab, V domains shown, source: HEK293F, transiently expressed, purified (KappaSelect or LambdaSelect, MonoS, Superdex 200)) VH: QVQLQESGPGLVKPSGTLSLTCAVSGGSISSSHWWSWVRQPPGKGLEWVGEISLSGSTHYGPSLKSRVSISLDKSMNHFSLRLSSVTAADTAVYYCARESRFYGAYFDYWGQGTLVTVSS VL: DIQLTQSPSFLSASVGDRVTITCWASQGINSYLAWYQQKPGKTPKLLIYAASTLQSGVPSRFSGSGSGTEFTLTISSLQPEDFATYYCQQLNSYPCSFGQGTTLEIK

# output
1. 31
2. 67
3. 12
